Target: EGFR (d746-750) (Homo sapiens, UniProt P00533, DEL746-750)
Sequence (P00533 with tags, fused parts or gaps DEL746-750 limits assumed): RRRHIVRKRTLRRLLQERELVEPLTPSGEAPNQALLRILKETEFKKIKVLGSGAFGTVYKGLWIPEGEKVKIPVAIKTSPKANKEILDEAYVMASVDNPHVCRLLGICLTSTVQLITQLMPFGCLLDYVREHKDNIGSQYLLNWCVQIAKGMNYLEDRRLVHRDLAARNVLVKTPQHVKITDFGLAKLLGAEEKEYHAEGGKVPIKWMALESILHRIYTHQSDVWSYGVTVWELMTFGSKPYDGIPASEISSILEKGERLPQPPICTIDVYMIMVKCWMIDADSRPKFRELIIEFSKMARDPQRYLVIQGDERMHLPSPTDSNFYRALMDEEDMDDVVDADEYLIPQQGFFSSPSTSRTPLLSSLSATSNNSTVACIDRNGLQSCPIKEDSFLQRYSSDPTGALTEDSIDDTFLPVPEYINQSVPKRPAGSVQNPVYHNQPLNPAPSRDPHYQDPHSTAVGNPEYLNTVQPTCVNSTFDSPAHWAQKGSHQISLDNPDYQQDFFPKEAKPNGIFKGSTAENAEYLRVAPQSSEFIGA
Assay: EGFR (d746-750) kinase inhibitory activity
Settings: ATP 5 μM, kinase reaction 90 minutes
Method: Among the materials of the inhibitory activity measurement, the substrate peptide and the kinase protein were obtained as follows. […] Based on the above rates, phosphorylation inhibition rates (%) were calculated for the samples to which various concentrations of the compound solutions were added. […] The inhibitory activities of the compounds of the present invention against EGFR (d746-750) kinase activity were measured. […]
quantityKind: pIC50
One number for each entry, as −log10 of the molar value.

// solved cases for pIC50 follow
Please look up its pIC50: C=C1c2c(-c3cnc4ccccc4c3)c3c(N)ncnc3n2C[C@H]1NC(=O)/C=C/CN(C)CC
9.06

Please look up its pIC50: C=CC(=O)N(C)[C@H]1Cn2c(c(-c3cnc4ccccc4c3)c3c(N)ncnc32)C1=C
9.14

# return pIC50 for each item in the list
1. C=CC(=O)N[C@H]1CC(C)c2c(-c3cnc4ccccc4c3)c3c(N)ncnc3n2C1 (stereo partly drawn)
2. C=CC(=O)N[C@@H]1CCn2c(c(-c3cnc4ccccc4c3)c3c(N)ncnc32)C1=C
3. C=C1c2c(-c3cnc4ccccc4c3)c3c(N)ncnc3n2C[C@H]1NC(=O)/C=C\Cl
4. C=CC(=O)N[C@H]1CC(=C)c2c(-c3cnc4ccccc4c3)c3c(N)ncnc3n2C1
5. C=C1c2c(-c3cnc4ccccc4c3)c3c(N)ncnc3n2C[C@H]1NC(=O)C#CC

1. 7.68
2. 8.68
3. 9.62
4. 8.85
5. 8.64

# return pIC50 for each item in the list
1. C=CC(=O)N[C@H]1C=Cc2c(-c3cnc4ccccc4c3)c3c(N)ncnc3n2CC1
2. C=C1c2c(-c3cnc4ccccc4c3)c3c(N)ncnc3n2C[C@H]1NC(=O)/C=C/CN(C)C(C)C
3. C=C(C)C(=O)N[C@@H]1Cn2c(c(-c3cnc4ccccc4c3)c3c(N)ncnc32)C1=C
4. C=C1c2c(-c3cnc4ccccc4c3)c3c(N)ncnc3n2C[C@H]1NC(=O)/C=C/CN(CC)CC

9.57
9.12
7.11
8.74

----------
Molecular target: EGFR (d746-750/T790M) (Homo sapiens, UniProt P00533, DEL746-750/T790M)
Sequence (P00533 with tags, fused parts or gaps DEL746-750/T790M limits assumed): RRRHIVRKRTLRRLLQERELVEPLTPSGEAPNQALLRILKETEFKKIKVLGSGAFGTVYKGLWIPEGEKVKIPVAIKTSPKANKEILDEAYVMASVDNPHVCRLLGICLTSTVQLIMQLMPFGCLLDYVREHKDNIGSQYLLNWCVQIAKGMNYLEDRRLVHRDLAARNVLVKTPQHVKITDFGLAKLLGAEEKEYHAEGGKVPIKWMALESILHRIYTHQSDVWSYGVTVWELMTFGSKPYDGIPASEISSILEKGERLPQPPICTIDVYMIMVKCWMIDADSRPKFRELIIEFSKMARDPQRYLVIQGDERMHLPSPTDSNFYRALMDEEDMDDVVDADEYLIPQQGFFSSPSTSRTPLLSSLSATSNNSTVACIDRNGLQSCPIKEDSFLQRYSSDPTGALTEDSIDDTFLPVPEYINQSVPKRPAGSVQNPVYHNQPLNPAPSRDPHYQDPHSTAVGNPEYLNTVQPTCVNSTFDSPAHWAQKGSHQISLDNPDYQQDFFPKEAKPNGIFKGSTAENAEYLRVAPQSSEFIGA
Assay: EGFR (d746-750/T790M) kinase inhibitory activity
Settings: ATP 1.5 μM
quantityKind: pIC50
Numbers only, as −log10 of the molar value.

// solved cases for pIC50 follow
// map C=CC(=O)N[C@H]1C=Cc2c(-c3cnc4ccccc4c3)c3c(N)ncnc3n2C1 to recorded pIC50 (system: EGFR (d746-750/T790M) (Homo sapiens, UniProt P00533, DEL746-750/T790M))
9.60

// map C=CC(=O)N[C@@H]1CCn2c(c(-c3cnc4ccccc4c3)c3c(N)ncnc32)C(=C)C1 to recorded pIC50 (system: EGFR (d746-750/T790M) (Homo sapiens, UniProt P00533, DEL746-750/T790M))
8.89

// map C=CC(=O)N(C)[C@H]1Cn2c(c(-c3cnc4ccccc4c3)c3c(N)ncnc32)C1=C to recorded pIC50 (system: EGFR (d746-750/T790M) (Homo sapiens, UniProt P00533, DEL746-750/T790M))
9.47

Next compound, pIC50 to be filled in.
// map C=CC(=O)N(C)[C@@H]1Cn2c(c(-c3cnc4ccccc4c3)c3c(N)ncnc32)C1=C to recorded pIC50 (system: EGFR (d746-750/T790M) (Homo sapiens, UniProt P00533, DEL746-750/T790M))
9.51

----------
For each of the compounds below, state its pIC50.
Biological target: EGFR (d746-750/T790M) (Homo sapiens, UniProt P00533, DEL746-750/T790M)
Assay: EGFR (d746-750/T790M) kinase inhibitory activity
Settings: ATP 1.5 μM
One number for each entry, as −log10 of the molar value.

Please look up its pIC50: C=C1c2c(-c3cnc4ccccc4c3)c3c(N)ncnc3n2C[C@H]1NC(=O)/C=C/CN(C)C(C)C [Example 12]
9.54

Please look up its pIC50: C=C1c2c(-c3cnc4ccccc4c3)c3c(N)ncnc3n2C[C@H]1NC(=O)/C=C/CN1CCCCC1 [Example 7]
9.28

Please look up its pIC50: C=C1c2c(-c3cnc4ccccc4c3)c3c(N)ncnc3n2C[C@H]1NC(=O)C=CC (mixture of isomers) [Example 3]
8.74

Please look up its pIC50: C=CC(=O)N(C)[C@@H]1CC(=C)c2c(-c3cnc4ccccc4c3)c3c(N)ncnc3n2C1 [Example 22]
9.64

Please look up its pIC50: C=C1c2c(-c3cnc4ccccc4c3)c3c(N)ncnc3n2C[C@H]1NC(=O)/C=C/CN(C)CC [Example 11]
9.49

Please look up its pIC50: C=CC(=O)N[C@H]1Cn2c(c(-c3cnc4ccccc4c3)c3c(N)ncnc32)C1=C [Example 25]
7.96

Please look up its pIC50: C=CC(=O)N[C@@H]1Cn2c(c(-c3cnc4ccccc4c3)c3c(N)ncnc32)C1C (stereo partly shown) [Example 24]
9.51

Please look up its pIC50: C=CC(=O)N[C@@H]1CCn2c(c(-c3cnc4ccccc4c3)c3c(N)ncnc32)C1=C [Example 13]
8.96

Please look up its pIC50: C=C1c2c(-c3cnc4ccccc4c3)c3c(N)ncnc3n2C[C@H]1NC(=O)/C=C/CN(CC)CC [Example 10]
9.21

Please look up its pIC50: C=CC(=O)N[C@H]1CC(C)c2c(-c3cnc4ccccc4c3)c3c(N)ncnc3n2C1 (stereo partly shown) [Example 29]
8.08

Next compound, pIC50 to be filled in.
Please look up its pIC50: C=CC(=O)N[C@@H]1CC(=C)c2c(-c3cnc4ccccc4c3)c3c(N)ncnc3n2C1 [Example 17]
7.96

----------
Here we list molecules with their recorded pIC50 when tested on EGFR (WT) (Homo sapiens).
Sequence (P00533 669-1210 limits assumed): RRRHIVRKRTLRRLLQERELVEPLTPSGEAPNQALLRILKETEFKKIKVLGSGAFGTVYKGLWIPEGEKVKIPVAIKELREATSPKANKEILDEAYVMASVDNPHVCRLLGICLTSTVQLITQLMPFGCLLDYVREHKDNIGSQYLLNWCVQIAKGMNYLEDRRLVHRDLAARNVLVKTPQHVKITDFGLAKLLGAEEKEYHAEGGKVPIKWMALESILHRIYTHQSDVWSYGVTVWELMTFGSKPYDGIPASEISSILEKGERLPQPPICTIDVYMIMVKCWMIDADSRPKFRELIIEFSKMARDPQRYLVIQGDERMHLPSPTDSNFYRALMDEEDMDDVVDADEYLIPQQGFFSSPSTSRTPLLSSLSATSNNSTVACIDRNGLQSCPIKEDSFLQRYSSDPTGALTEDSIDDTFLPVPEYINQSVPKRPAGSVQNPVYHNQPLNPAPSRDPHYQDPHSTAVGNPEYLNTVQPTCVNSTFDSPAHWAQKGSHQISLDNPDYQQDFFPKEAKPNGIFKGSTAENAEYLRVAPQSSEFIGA
One number for each entry, as −log10 of the molar value.

// solved cases for pIC50 follow
Please look up its pIC50: C=CC(=O)N[C@@H]1C=C(C)c2c(-c3cnc4ccccc4c3)c3c(N)ncnc3n2C1
6.32

Please look up its pIC50: C=C1c2c(-c3cnc4ccccc4c3)c3c(N)ncnc3n2C[C@H]1NC(=O)/C=C\Cl
8.31

# return pIC50 for each item in the list
1. C=CC(=O)N(C)[C@H]1Cn2c(c(-c3cnc4ccccc4c3)c3c(N)ncnc32)C1=C
2. C=C1c2c(-c3cnc4ccccc4c3)c3c(N)ncnc3n2C[C@H]1NC(=O)C=CC (mixture of isomers)
3. C=C1c2c(-c3cnc4ccccc4c3)c3c(N)ncnc3n2C[C@H]1NC(=O)/C=C/CN1CCCCC1
4. C=CC(=O)N(C)[C@@H]1CC(=C)c2c(-c3cnc4ccccc4c3)c3c(N)ncnc3n2C1
5. C=CC(=O)N[C@@H]1Cn2c(c(-c3cnc4ccccc4c3)c3c(N)ncnc32)C1C (some centres unmarked)
6. C=CC(=O)N[C@@H]1CC(=C)c2c(-c3cnc4ccccc4c3)c3c(N)ncnc3n2C1

[8.11, 6.96, 7.92, 8.26, 8.07, 6.24]

----------
Target: EGFR (T790M/L858R) (Homo sapiens, UniProt P00533, L858R/T790M)
Sequence (P00533 25-1210 T790M/L858R): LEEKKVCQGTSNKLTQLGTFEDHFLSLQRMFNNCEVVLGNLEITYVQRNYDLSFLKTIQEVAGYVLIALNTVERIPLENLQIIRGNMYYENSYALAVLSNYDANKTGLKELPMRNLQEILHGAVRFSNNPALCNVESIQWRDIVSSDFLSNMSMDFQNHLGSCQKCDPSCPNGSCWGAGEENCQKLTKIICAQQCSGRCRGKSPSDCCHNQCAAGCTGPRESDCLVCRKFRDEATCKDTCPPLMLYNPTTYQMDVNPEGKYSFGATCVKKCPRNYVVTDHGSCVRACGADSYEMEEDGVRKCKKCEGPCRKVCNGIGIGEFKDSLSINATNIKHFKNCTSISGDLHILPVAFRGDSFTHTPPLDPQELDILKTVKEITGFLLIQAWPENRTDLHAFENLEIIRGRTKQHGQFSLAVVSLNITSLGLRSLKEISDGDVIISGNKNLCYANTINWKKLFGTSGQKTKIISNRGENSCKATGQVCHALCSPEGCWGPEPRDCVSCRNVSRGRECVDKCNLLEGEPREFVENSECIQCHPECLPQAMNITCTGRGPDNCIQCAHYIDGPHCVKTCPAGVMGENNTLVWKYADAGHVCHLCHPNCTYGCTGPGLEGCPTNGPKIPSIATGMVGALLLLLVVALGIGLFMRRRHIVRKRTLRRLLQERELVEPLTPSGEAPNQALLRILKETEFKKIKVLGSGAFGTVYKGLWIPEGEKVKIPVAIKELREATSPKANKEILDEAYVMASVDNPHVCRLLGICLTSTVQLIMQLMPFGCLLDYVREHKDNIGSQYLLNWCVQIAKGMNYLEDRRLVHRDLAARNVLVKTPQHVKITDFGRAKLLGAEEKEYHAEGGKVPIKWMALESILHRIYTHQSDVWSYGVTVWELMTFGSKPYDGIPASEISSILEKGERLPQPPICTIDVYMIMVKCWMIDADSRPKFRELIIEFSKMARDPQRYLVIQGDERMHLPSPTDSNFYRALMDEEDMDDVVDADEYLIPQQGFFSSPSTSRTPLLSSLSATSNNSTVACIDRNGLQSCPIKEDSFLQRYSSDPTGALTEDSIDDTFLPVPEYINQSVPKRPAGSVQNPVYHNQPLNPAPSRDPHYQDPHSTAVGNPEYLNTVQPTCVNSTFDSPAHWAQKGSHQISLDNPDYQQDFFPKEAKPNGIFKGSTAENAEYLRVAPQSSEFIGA
Experiment: EGFR (T790M/L858R) kinase inhibitory activity
Conditions: ATP 1 μM, 25° C. for 120 minutes
quantityKind: IC50 (nM)
Numbers only, in nM.

Please look up its IC50: C=C1c2c(-c3cnc4ccccc4c3)c3c(N)ncnc3n2C[C@H]1NC(=O)/C=C\Cl
0.24

# return IC50 for each item in the list
1. C=CC(=O)N[C@@H]1Cn2c(c(-c3cnc4ccccc4c3)c3c(N)ncnc32)C1C (stereo partly shown)
2. C=CC(=O)N[C@@H]1CCn2c(c(-c3cnc4ccccc4c3)c3c(N)ncnc32)C1=C

1. 0.83
2. 2.1

Please look up its IC50: C=C1c2c(-c3cnc4ccccc4c3)c3c(N)ncnc3n2C[C@H]1NC(=O)/C=C/CN(CC)CC
1.5

----------
For each of the compounds below, state its IC50.
Biological target: EGFR (d746-750/T790M) (Homo sapiens, UniProt P00533, DEL746-750/T790M)
Construct: purchased Carna Biosciences, Inc
Assay: EGFR (d746-750/T790M) kinase inhibitory activity
Assay type: biochemical
Details: ATP 1.5 μM

// solved cases for IC50 follow
Please look up its IC50: C=CC(=O)N(C)[C@@H]1C=C(C)c2c(-c3cnc4ccccc4c3)c3c(N)ncnc3n2C1
0.3 nM

Please look up its IC50: C=C1c2c(-c3cnc4ccccc4c3)c3c(N)ncnc3n2C[C@H]1NC(=O)/C=C\Cl
< 0.15 nM

Please look up its IC50: C=C1c2c(-c3cnc4ccccc4c3)c3c(N)ncnc3n2C[C@H]1NC(=O)/C=C/Cl
< 0.15 nM

Next:
Please look up its IC50: C=C1c2c(-c3cnc4ccccc4c3)c3c(N)ncnc3n2C[C@H]1NC(=O)C#CC
0.45 nM
